# SYSTEM: T1, human ARG2 (Homo sapiens, UniProt P78540, E275H/R327K)
# T1 construct: His10 (after a GGG linker) (C); made in house; host or cells: E. coli BL21 (DE3)
# T1 sequence (P78540 23-354 E275H/R327K): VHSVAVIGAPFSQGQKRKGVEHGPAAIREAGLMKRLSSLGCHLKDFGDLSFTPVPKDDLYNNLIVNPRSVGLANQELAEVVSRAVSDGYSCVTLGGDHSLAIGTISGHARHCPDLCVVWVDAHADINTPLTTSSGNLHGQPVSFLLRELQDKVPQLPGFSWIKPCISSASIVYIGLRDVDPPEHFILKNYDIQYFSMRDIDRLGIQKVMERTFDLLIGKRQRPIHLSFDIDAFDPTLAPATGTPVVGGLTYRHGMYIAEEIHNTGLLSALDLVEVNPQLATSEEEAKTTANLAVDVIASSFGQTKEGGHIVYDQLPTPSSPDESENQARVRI
# PROTOCOL_DETAILS: Bio-Layer Interferometry (OctetRED) binding kinetics, human ARG2
# TEST_SETTINGS: Fab as analyte; streptavidin capture; analyte 1.8 to 120 nM; affinity-matured antibodies
READOUT_KIND: ka (M⁻¹ s⁻¹)
State just the number; it will be interpreted in M⁻¹ s⁻¹.

Challenge: Fill in the blank: the reported ka of C0021128: anti-ARG2 antibody, VH SEQ ID NO: 162, VL SEQ ID NO: 167 (antibody, listed as Homo sapiens, V domains shown, C0021128) VH: EVQLLESGGGLVQPGGSLRLSCAASGFTFQYEVAAWVRQAPGKGLEWVSAISGPIPKGYYADSVKGRFTISRDNSKNTLYLQMNSLRAEDTAVYYCARLRADLGLYMDLWGRGTLVTVSS VL: QSVLTQPPSVSAAPGQKVTISCSGSSSNIGNHYVSWYQQLPGTAPKLLIYDNAIESSGIPDRFSGSKSGTSATLGITGLQTGDGADYYCGTWDSNLSALVFGGGTKLTVL is ____.
Response given: 266000
